B1: Pre-mRNA-processing factor 40 homolog B, residues 274 to 332; numbered along this chain, Q6NWY9 (parent)
chain: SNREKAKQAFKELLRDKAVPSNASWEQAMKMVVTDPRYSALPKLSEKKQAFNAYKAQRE

- Variants of: B1
- protocol details: abundance fitness (aPCA) (normalised: wild type 0, dead -1); higher = more abundant; growth selection in yeast, the domain comes from the species named
- condition set: Homo sapiens
metric name: abundance fitness

Use these answered entries as a reference point.
[
  {
    "mutation key": "R15E",
    "metric name": "abundance fitness",
    "measured value": 0.046
  },
  {
    "mutation key": "M29V",
    "metric name": "abundance fitness",
    "measured value": -0.114
  },
  {
    "mutation key": "V19P",
    "metric name": "abundance fitness",
    "measured value": -0.477
  },
  {
    "mutation key": "K47P",
    "metric name": "abundance fitness",
    "measured value": -0.365
  }
]

// lookup abundance fitness for `S45V`
-0.457

// lookup abundance fitness for `R15A`
0.001

// lookup abundance fitness for `K11N`
-0.137

// lookup abundance fitness for `L44T`
-0.337

// lookup abundance fitness for `M31F`
-0.634

// lookup abundance fitness for `V19L`
-0.606

Ref: the Human Domainome abundance scans (Beltran et al. 2025)
